TARGET UNDER TEST: EGFR_T790M/L858R (Homo sapiens, UniProt P00533, L858R/T790M)
Sequence (P00533 25-1210 T790M/L858R): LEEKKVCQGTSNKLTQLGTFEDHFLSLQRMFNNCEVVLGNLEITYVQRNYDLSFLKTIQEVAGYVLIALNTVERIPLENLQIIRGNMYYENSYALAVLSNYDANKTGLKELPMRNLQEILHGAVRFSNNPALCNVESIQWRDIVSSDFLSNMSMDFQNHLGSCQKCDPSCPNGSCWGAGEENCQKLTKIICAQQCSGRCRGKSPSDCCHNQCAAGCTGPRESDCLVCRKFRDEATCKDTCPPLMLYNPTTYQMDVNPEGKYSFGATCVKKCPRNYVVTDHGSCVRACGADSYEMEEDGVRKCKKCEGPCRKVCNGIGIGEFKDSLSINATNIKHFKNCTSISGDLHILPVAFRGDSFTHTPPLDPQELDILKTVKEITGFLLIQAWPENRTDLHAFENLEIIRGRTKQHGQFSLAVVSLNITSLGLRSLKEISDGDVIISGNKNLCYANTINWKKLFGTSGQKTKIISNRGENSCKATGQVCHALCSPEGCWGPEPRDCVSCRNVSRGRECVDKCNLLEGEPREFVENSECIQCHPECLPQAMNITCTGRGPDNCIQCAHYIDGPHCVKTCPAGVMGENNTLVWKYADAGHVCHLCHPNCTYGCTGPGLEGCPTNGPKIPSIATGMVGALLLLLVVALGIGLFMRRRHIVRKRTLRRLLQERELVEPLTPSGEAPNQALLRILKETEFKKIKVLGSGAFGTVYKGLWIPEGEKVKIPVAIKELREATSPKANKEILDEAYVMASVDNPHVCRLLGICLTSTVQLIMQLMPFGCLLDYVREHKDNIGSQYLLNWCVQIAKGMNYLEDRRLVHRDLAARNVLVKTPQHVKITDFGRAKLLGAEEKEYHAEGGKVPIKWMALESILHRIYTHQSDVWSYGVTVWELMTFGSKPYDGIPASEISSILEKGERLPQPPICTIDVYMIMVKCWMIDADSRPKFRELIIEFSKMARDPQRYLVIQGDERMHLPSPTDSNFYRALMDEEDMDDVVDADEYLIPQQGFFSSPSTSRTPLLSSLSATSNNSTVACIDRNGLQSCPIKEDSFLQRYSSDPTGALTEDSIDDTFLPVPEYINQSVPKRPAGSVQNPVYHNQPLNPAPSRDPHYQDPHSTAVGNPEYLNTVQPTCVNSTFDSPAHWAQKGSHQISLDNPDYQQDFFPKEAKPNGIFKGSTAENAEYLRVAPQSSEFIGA
PROTOCOL SUMMARY: Enzyme assay, IC50 for double-mutant EGFR (EGFR_T790M/L858R) (Caliper)
CONDITION CONTEXT: enzyme phosphorylation assay; read-out: EGFR_L858R/T790 IC50
ENDPOINT LABEL: IC50 (nM)

                                 smiles_code                         target_under_test  output_unit  observed_measurement
 0  C=CC(=O)Nc1cc(Nc2nccc(-c3c[nH]c4ccccc34)n2)c(OC)cc1N(C)CCN(C)C  EGFR_T790M/L858R (Homo sapiens, UniProt P00533, L858R/T790M)           nM                   1.5
 1  C=CC(=O)Nc1cc(Nc2nccc(-n3ccc4ccccc43)n2)c(OC)cc1N(C)CCN(C)C  EGFR_T790M/L858R (Homo sapiens, UniProt P00533, L858R/T790M)           nM                   0.7
 2  C=CC(=O)Nc1cc(Nc2nccc(-n3cc(C(N)=O)c4ccccc43)n2)c(OC)cc1N(C)CCN(C)C  EGFR_T790M/L858R (Homo sapiens, UniProt P00533, L858R/T790M)           nM                   1.2
 3  C=CC(=O)Nc1cc(Nc2nccc(N3CCc4ccccc43)n2)c(OC)cc1N(C)CCN(C)C  EGFR_T790M/L858R (Homo sapiens, UniProt P00533, L858R/T790M)           nM                   1.5
 4  C=CC(=O)Nc1cc(Nc2nccc(-n3cc(C)c4ccccc43)n2)c(OC)cc1N(C)CCN(C)C  EGFR_T790M/L858R (Homo sapiens, UniProt P00533, L858R/T790M)           nM                   1.3
 5  C=CC(=O)Nc1cc(Nc2nccc(-c3cn(C)c4cccc(C)c34)n2)c(OC)cc1N(C)CCN(C)C  EGFR_T790M/L858R (Homo sapiens, UniProt P00533, L858R/T790M)           nM                   2.7
 6  C=CC(=O)Nc1cc(Nc2nccc(-n3cc(Cl)c4ccccc43)n2)c(OC)cc1N(C)CCN(C)C  EGFR_T790M/L858R (Homo sapiens, UniProt P00533, L858R/T790M)           nM                   1.5
 7  C=CC(=O)Nc1cc(Nc2nccc(-c3c[nH]c4c(C)cccc34)n2)c(OC)cc1N(C)CCN(C)C  EGFR_T790M/L858R (Homo sapiens, UniProt P00533, L858R/T790M)           nM                   1.3
 8  C=CC(=O)Nc1cc(Nc2nccc(-n3cc(C#N)c4ccccc43)n2)c(OC)cc1N(C)CCN(C)C  EGFR_T790M/L858R (Homo sapiens, UniProt P00533, L858R/T790M)           nM                  0.84
 9  C=CC(=O)Nc1cc(Nc2nccc(-n3cc(CO)c4ccccc43)n2)c(OC)cc1N(C)CCN(C)C  EGFR_T790M/L858R (Homo sapiens, UniProt P00533, L858R/T790M)           nM                   1.8
10  C=CC(=O)Nc1cc(Nc2nccc(-n3cc(S(C)(=O)=O)c4ccccc43)n2)c(OC)cc1N(C)CCN(C)C  EGFR_T790M/L858R (Homo sapiens, UniProt P00533, L858R/T790M)           nM                   1.3
11  C=CC(=O)Nc1cc(Nc2nccc(-c3n[nH]c4ccccc34)n2)c(OC)cc1N(C)CCN(C)C  EGFR_T790M/L858R (Homo sapiens, UniProt P00533, L858R/T790M)           nM                   1.5
12  C=CC(=O)Nc1cc(Nc2nccc(-n3c(=O)[nH]c4ccccc43)n2)c(OC)cc1N(C)CCN(C)C  EGFR_T790M/L858R (Homo sapiens, UniProt P00533, L858R/T790M)           nM                   1.2
13  C=CC(=O)Nc1cc(Nc2nccc(-c3cn(C)c4cccc(Cl)c34)n2)c(OC)cc1N(C)CCN(C)C  EGFR_T790M/L858R (Homo sapiens, UniProt P00533, L858R/T790M)           nM                     7
14  C=CC(=O)Nc1cc(Nc2nccc(-c3c(C)[nH]c4ccccc34)n2)c(OC)cc1N(C)CCN(C)C  EGFR_T790M/L858R (Homo sapiens, UniProt P00533, L858R/T790M)           nM                   1.8
15  C=CC(=O)Nc1cc(Nc2nccc(-c3c[nH]c4c(C#N)cccc34)n2)c(OC)cc1N(C)CCN(C)C  EGFR_T790M/L858R (Homo sapiens, UniProt P00533, L858R/T790M)           nM                   1.2

Data provenance is patent US10435388B2.
